B1: 1ZHC (parent)
chain: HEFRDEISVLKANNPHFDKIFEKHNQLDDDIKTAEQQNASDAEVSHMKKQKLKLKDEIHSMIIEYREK

- Variants of: B1
- ASSAY: folding stability dG (cDNA display proteolysis); higher = more stable
- STUDY CONDITIONS: PBS, room temperature
Please use the following folding stability dG ranges when assigning a class: low = under 0.4 kcal/mol, medium = from 0.4 kcal/mol up to 0.8 kcal/mol, high = 0.8 kcal/mol and over

Input: Which bin should I file HEFRDEISVLKANNPHFDKIFEKHNQLWDDIKTAEQQNASDAEVSHMKKQKLKLKDEIHSMIIEYREK [D28W] under?
Output: medium

Input: # classify by folding stability dG band: HEFRDEISVLYANNPHFDKIFEKHNQLDDDIKTAEQQNASDAEVSHMKKQKLKLKDEIHSMIIEYREK [K11Y]
Output: low

Input: Could you tell me which band HEFRDEISVLKANNPHFDKIFEKHNQLDDDIKTAEQQNASDAEVSHMKKQKQKLKDEIHSMIIEYREK [L52Q] belongs to?
Output: high

Input: Which folding stability dG category applies to HEFRDEISVLKANNPHFDKIFEKHNQLDDDIKTAEQQNASDAEVSHMKKQKLKLKTEIHSMIIEYREK [D56T] here?
Output: high

Input: Band assignment needed for HEFRDEISVLKANNMHFDKIFEKHNQLDDDIKTAEQQNASDAEVSHMKKQKLKLKDEIHSMIIEYREK [P15M] please.
Output: low

Input: Sort into band: HEFRDEISVLKANNPHFDKVFEKHNQLDDDIKTAEQQNASDAEVSHMKKQKLKLKDEIHSMIIEYREK [I20V]
Output: medium

Input: Categorize the following entry: HEFRDEISVLKANNPHFDKIFEKHNQLDDDIKTAEQQNASDAEVSHMKKQKLKLKDEILSMIIEYREK [H59L]
Output: high

Input: Using the reported folding stability dG, which band applies to HQFRDEISVLKANNPHFDKIFEKHNQLDDDIKTAEQQNASDAEVSHMKKQKLKLKDEIHSMIIEYREK [E2Q] ?
Output: high

Input: Exercise: read the entry HEFRDEISVLKANNPHFDKIFEKHNQLDDDNKTAEQQNASDAEVSHMKKQKLKLKDEIHSMIIEYREK [I31N] and state which class it falls under.
Output: low

Input: For the record HEFRDEVSVLKANNPHFDKIFEKHNQLDDDIKTAEQQNASDAEVSHMKKQKLKLKDEIHSMIIEYREK [I7V] , report the class its folding stability dG corresponds to.
Output: medium

Input: Please classify: HEFRDEISVLKANNPHFDKIFEKHNQLDDDIKTAEQQNASDAEVSLMKKQKLKLKDEIHSMIIEYREK [H46L]
Output: high

Input: Bin? HEFRDEISVLKANNPHFDKIFEKHNQLDDDIKTAEQQNASDAEVSHMKWQKLKLKDEIHSMIIEYREK [K49W]
Output: medium

Input: Class? Entry: HEFRDEISVLKANNPHFDKIFEKHNQLDDDIKTAEQQNASDAEVSHMKKQRLKLKDEIHSMIIEYREK [K51R]
Output: high

Input: Pick a category. Item: HEFRDEISVLKANNPHFDKIFEKHNQLDDDIKTAEQQNASDAEVSHVKKQKLKLKDEIHSMIIEYREK [M47V]
Output: low

Input: Class (by measured folding stability dG) for HEFRDEISVCKANNPHFDKIFEKHNQLDDDIKTAEQQNASDAEVSHMKKQKLKLKDEIHSMIIEYREK [L10C]
Output: medium

Input: Bin this entry: HEFRDEISVLKANNPHFDKIFEKSNQLDDDIKTAEQQNASDAEVSHMKKQKLKLKDEIHSMIIEYREK [H24S]
Output: medium

Input: Where would HEFRDEISVLKANNPEFDKIFEKHNQLDDDIKTAEQQNASDAEVSHMKKQKLKLKDEIHSMIIEYREK [H16E] land among the classes by reported folding stability dG?
Output: low

Input: Determine which band this variant sits in: HEFRDEISVLKANNPHFDKMFEKHNQLDDDIKTAEQQNASDAEVSHMKKQKLKLKDEIHSMIIEYREK [I20M]
Output: low

Input: Any idea which band HEFRDEISELKANNPHFDKIFEKHNQLDDDIKTAEQQNASDAEVSHMKKQKLKLKDEIHSMIIEYREK [V9E] is in?
Output: high

Input: Where would HEFRDEISVLKANNPHFDKIFEKHNQLDDDIKTAEQQNASDAEVSHMKKQKLKLKDEMHSMIIEYREK [I58M] land among the classes by reported folding stability dG?
Output: low

Input: Form field 'band' for HEFRDEISVLKANNPHFDKIFEKHNQLDDDIKTAEQQNPSDAEVSHMKKQKLKLKDEIHSMIIEYREK [A39P]
Output: low

Input: Sort into band: HEFRDEISVLKANNPHFDKIFEKHNQLDDDIKTAEQQNASDAEVSQMKKQKLKLKDEIHSMIIEYREK [H46Q]
Output: high

Input: Quick check: band for HEFRDEISVLKANNPHFDKIFEKHIQLDDDIKTAEQQNASDAEVSHMKKQKLKLKDEIHSMIIEYREK [N25I]
Output: medium

Input: Sort HEFRDEISVLKANNPHFDKIFEKHNQLDDDIKTAEQQNASDAEVSHMMKQKLKLKDEIHSMIIEYREK [K48M] into one of the categories.
Output: medium

Input: Place this variant in its band: HEFRDEISHLKANNPHFDKIFEKHNQLDDDIKTAEQQNASDAEVSHMKKQKLKLKDEIHSMIIEYREK [V9H]
Output: high
